Source: patent US11939361B2

# EXPERIMENT: Colon and colonic content concentrations in rat TNBS colitis model (LC-MS/MS)
# Format: in vivo, Sprague Dawley rats
# CONDITION DETAILS: Sprague Dawley, colon, po, 0.1 mg/kg, Study 3, 0.1 mg/kg TID oral, total daily dose 0.3 mg/kg, read-out: Mean concentration in Colon
OBSERVABLE: tissue level at time at 168 h (ng/g)
Number in ng/g, nothing else.

# input Provide only the value of recorded tissue level at time at 168 h for CC(=O)NCCCC[C@@H]1NC(=O)[C@H](Cc2c[nH]c3c(C)cccc23)NC(=O)[C@H]([C@@H](C)O)NC(=O)[C@H](CC(N)=O)NC(=O)[C@@H](NC(C)=O)C(C)(C)SSC(C)(C)[C@@H](C(=O)N[C@@H](Cc2ccc(OCCN)cc2)C(=O)N[C@@H](Cc2ccc3ccccc3c2)C(=O)NC2(C(=O)N[C@@H](CCC(=O)O)C(=O)N[C@@H](CC(N)=O)C(=O)N[C@@H](Cc3cccnc3)C(=O)N(C)CC(N)=O)CCOCC2)NC1=O
# output 44.4

###

# EXPERIMENT: Rat PK Study 1: intraduodenal/intracolonic dosing with absorption enhancers
# Format: in vivo, Sprague Dawley rats
# CONDITION DETAILS: male, Sprague Dawley, plasma, other: intraduodenal, 10 mg/kg, ID dose 10 mg/kg, SNAC 100 mg/kg
OBSERVABLE: Cmax
Respond with the figure and its unit, in that order.

# input Name the recorded Cmax of the item CC(=O)NCCCC[C@@H]1NC(=O)[C@H](Cc2c[nH]c3c(C)cccc23)NC(=O)[C@H]([C@@H](C)O)NC(=O)[C@H](CC(N)=O)NC(=O)[C@@H](NC(C)=O)C(C)(C)SSC(C)(C)[C@@H](C(=O)N[C@@H](Cc2ccc(OCCN)cc2)C(=O)N[C@@H](Cc2ccc3ccccc3c2)C(=O)NC2(C(=O)N[C@@H](CCC(=O)O)C(=O)N[C@@H](CC(N)=O)C(=O)N[C@@H](Cc3cccnc3)C(=O)N(C)CC(N)=O)CCOCC2)NC1=O in your answer.
# output 209 ng/mL

###

# EXPERIMENT: Rat PK Study 1: intraduodenal/intracolonic dosing with absorption enhancers
# Type: in vivo, Sprague Dawley rats
# CONDITION DETAILS: male, Sprague Dawley, plasma, other: intraduodenal, 10 mg/kg, ID dose 10 mg/kg, Labrasol 100 mg/kg
OBSERVABLE: AUC(0-inf)

# input Given CC(=O)NCCCC[C@@H]1NC(=O)[C@H](Cc2c[nH]c3c(C)cccc23)NC(=O)[C@H]([C@@H](C)O)NC(=O)[C@H](CC(N)=O)NC(=O)[C@@H](NC(C)=O)C(C)(C)SSC(C)(C)[C@@H](C(=O)N[C@@H](Cc2ccc(OCCN)cc2)C(=O)N[C@@H](Cc2ccc3ccccc3c2)C(=O)NC2(C(=O)N[C@@H](CCC(=O)O)C(=O)N[C@@H](CC(N)=O)C(=O)N[C@@H](Cc3cccnc3)C(=O)N(C)CC(N)=O)CCOCC2)NC1=O [SEQ ID NO: 1] , respond with its AUC(0-inf).
# output 621 ng·h/mL

###

# EXPERIMENT: clinical
# CONDITION DETAILS: human, in vivo, po, 1000 mg
OBSERVABLE: Cmax (ng/mL)
Numbers only; they are read as ng/mL.

# input For the molecule CC(=O)NCCCC[C@@H]1NC(=O)[C@H](Cc2c[nH]c3c(C)cccc23)NC(=O)[C@H]([C@@H](C)O)NC(=O)[C@H](CC(N)=O)NC(=O)[C@@H](NC(C)=O)C(C)(C)SSC(C)(C)[C@@H](C(=O)N[C@@H](Cc2ccc(OCCN)cc2)C(=O)N[C@@H](Cc2ccc3ccccc3c2)C(=O)NC2(C(=O)N[C@@H](CCC(=O)O)C(=O)N[C@@H](CC(N)=O)C(=O)N[C@@H](Cc3cccnc3)C(=O)N(C)CC(N)=O)CCOCC2)NC1=O , give its measured Cmax value.
# output 8.3
